The measured values listed here are drawn from ChEMBL document CHEMBL3885861.

Organism: Rattus norvegicus
protocol: Open TG-GATES - Regimen: Daily Repeat
Assay type: toxicity, organism-based, Sprague-Dawley
Set-up: regimen Daily Repeat, gender Male, age 6 weeks
conditionSet: in vivo, po, 0 mg/kg, […], tissue Blood, route gavage, dose level Control, time 14 day
readoutType: Fbg (mg/dL)

{"compound": "COc1ccc2c(c1)c(CC(=O)O)c(C)n2C(=O)c1ccc(Cl)cc1 [INDOMETHACIN]", "readoutType": "Fbg", "valueReported": 228.8}
{"compound": "CCc1cc(C(N)=S)ccn1 [ETHIONAMIDE]", "readoutType": "Fbg", "valueReported": 215.4}
{"compound": "O=C(O)c1cn(C2CC2)c2cc(N3CCNCC3)c(F)cc2c1=O [CIPROFLOXACIN]", "readoutType": "Fbg", "valueReported": 250.2}
{"compound": "NC(=O)N1c2ccccc2C=Cc2ccccc21 [CARBAMAZEPINE]", "readoutType": "Fbg", "valueReported": 219}
{"compound": "Cn1c(=O)c2[nH]cnc2n(C)c1=O.O [THEOPHYLLINE]", "readoutType": "Fbg", "valueReported": 324.6}
{"compound": "O=C(O)c1cc(/N=N/c2ccc(S(=O)(=O)Nc3ccccn3)cc2)ccc1O [SULFASALAZINE]", "readoutType": "Fbg", "valueReported": 229.4}
{"compound": "CO[C@H]1/C=C/O[C@@]2(C)Oc3c(C)c(O)c4c(O)c(c(/C=N/N5CCN(C)CC5)c(O)c4c3C2=O)NC(=O)/C(C)=C\\C=C\\[C@H](C)[C@H](O)[C@@H](C)[C@@H](O)[C@@H](C)[C@H](OC(C)=O)[C@@H]1C [RIFAMPIN]", "readoutType": "Fbg", "valueReported": 235.6}
{"compound": "CCCC(CCC)C(=O)O [VALPROIC ACID]", "readoutType": "Fbg", "valueReported": 228.2}
